Assay: yeast display, Sf9 membrane polyspecificity reagent, FACS + sequencing; frameworks hold sequencing errors
observable: polyreactivity (PSR sort gate)

>>> endpoint_result("QVQLVESGGGLVQAGGSLRLSCAASGFTFRKNAMGWYRQAPGKERELVAAISSGSGSTYYADSVKGRFTISRDNAKNTVYLQMNSLKPEDTAVYYCNSEAYYTTGYPTSDVFDRYDYWGKGTQVTVSS")
"low polyreactivity"
>>> endpoint_result("QVQLVESGGGLVQAGGSLRLSCAASGFTFYRYTMGWYRQAPGIYRELVAAISSGDSTYYADSVKGRFTISRDNAKNTVYLQMNSLKPEDTAVYYCAARQYSRGAIVYYWGQGTQVTVSS")
"high polyreactivity"
>>> endpoint_result("HVQLVESGGGLVQAGGSLRLSCAASGRILYGNAMGWYRKAPGKDRELVAAISWRADSTYYADSVKGRFTISRDNAKNTVYLQMNSLKPEDTAVYYCAADGNYRRHYWGQGTQVTVSS")
"high polyreactivity"
>>> endpoint_result("QVQLVESGGGLVQAGGSLRLSCAASGYTFVDNAMGRYRQAPGKERELVAAINWDGASTYADSVKGRFTISRDNAKNTVYLQMNSLKPEDTAVYYCTASGKDIFNYVYQGYDYWGQGTQVTVSS")
"low polyreactivity"
>>> endpoint_result("QVQLVESGGGLVQAGGSLRLSCAASGSIFPNYAMGWYRQAPGKERELVAAISSSGGRTYYADSVKGRFTISRDNAKNTVYLQMNCLKPEDTAVYYCAADTYTSAQHEKYDYWGQGTQVTVSS")
"low polyreactivity"

* * *

Test: yeast display, Sf9 membrane polyspecificity reagent, FACS + sequencing; frameworks hold sequencing errors
observable: polyreactivity (PSR sort gate)

>>> endpoint_result("QVQLVESGGCLVQAGGSLRLSCAASGSTFDGNAMGWYRQAPGKERELVATINSGSSTTYADSVKGRFTISRDNAKNTVYLQMNSLKPEDTAVYYCNVDSGSDSLVYSVRYNYWGQGTQVTVSS")
"low polyreactivity"
>>> endpoint_result("QVQLVESGGGLVQAGGSLRLSCAASGRILGNNVMGWYRQAPGKERELVAAITSSGGRTYYADSVKGRFTISRDNAKNTVYLQMNSLKPEDTAVYYCAAERRYYGKFNYWGQGTQVTVSS")
"high polyreactivity"
>>> endpoint_result("QVQLVESGGGLVQAGGSLRLSCAASGFTFRWYTMGWYRQAPGKERELGAAINRGGSTYYADSVKGRFTISRDNAQNTVYLQMNSLKPEDTAVYYCAKSVSASWGRDYWGQGTQVTVSS")
"high polyreactivity"
>>> endpoint_result("QDQHVESGGGLVQAGGSLRLSCAAPGITFYPYDMGWYRQAPGKERELVASISRSGGSTYYADSVKGRFTISRDNAKNTVYLQMNSLKPEDTAVYYCNAYSTRGMYSWGQGTQVTVSS")
"high polyreactivity"
>>> endpoint_result("QVQLVESGGGLVQAGGSLRLSCAASGRTFPGNDMGWYRQAPGKERELDAAISSDDSTYYADSVKWRFTMSRDNAKNTVYLKMNSLKPEDTAVYYCNAEYYEGYIGVPGSYWPYEYWGQGTQVTVSS")
"low polyreactivity"

* * *

Test: yeast display, Sf9 membrane polyspecificity reagent, FACS + sequencing; frameworks hold sequencing errors
observable: polyreactivity (PSR sort gate)

>>> endpoint_result("QVQLVESGGGLVQAGGSLRLSCAASGRTFQRNAMGLYRQEPGKERELVAAISTRGGSTYYADSVKGRFTISRDNAKNTVYLQMNSLKPEDTAVYYCAKDPTLTRGYKEGGGYDYLGQGTQVTVSS")
"high polyreactivity"
>>> endpoint_result("QVQLVESGGGLVQAGGSLRLRCAASGSTFTKNAMGWYRQAPGKERELVAAISFTTGRTYYADSVKGRFTISRDNAKNTVYLQMNSLKPEDTAVYYCNKVYARSEQRGPVAGNYWGQGTQVTVSS")
"high polyreactivity"
